Reference source: paper PMC1331985

measuredOn: the molecule itself
testSummary: SEC

{"protein": "Est3p-S87A (natural protein, S. cerevisiae, UniProt Q03096 1-181, looked up) MPKVILESHSKPTDSVFLQPWIKALIEDNSEHDQYHPSGHVIPSLTKQDLALPHMSPTILTNPCHFAKITKFYNVCDYKVYASIRDASHQILVEFSQECVSNFERTHNCRITSETTNCLMIIGDADLVYVTNSRAMSHFKICLSNISSKEIVPVLNVNQATIFDIDQVGSLSTFPFVYKYL", "binding result": "binds"}
{"protein": "Est3p-E104A (natural protein, S. cerevisiae, UniProt Q03096 1-181, looked up) MPKVILESHSKPTDSVFLQPWIKALIEDNSEHDQYHPSGHVIPSLTKQDLALPHMSPTILTNPCHFAKITKFYNVCDYKVYASIRDSSHQILVEFSQECVSNFARTHNCRITSETTNCLMIIGDADLVYVTNSRAMSHFKICLSNISSKEIVPVLNVNQATIFDIDQVGSLSTFPFVYKYL", "binding result": "binds"}
{"protein": "Est3p-K71A (natural protein, S. cerevisiae, UniProt Q03096 1-181, looked up) MPKVILESHSKPTDSVFLQPWIKALIEDNSEHDQYHPSGHVIPSLTKQDLALPHMSPTILTNPCHFAKITAFYNVCDYKVYASIRDSSHQILVEFSQECVSNFERTHNCRITSETTNCLMIIGDADLVYVTNSRAMSHFKICLSNISSKEIVPVLNVNQATIFDIDQVGSLSTFPFVYKYL", "binding result": "binds"}
